Origin of values: patent US20230096766A1

Please go through the items and note down their Papp.
assay: in vitro; conditions: human, Caco-2, Caco-2 (cm/sec)
*1 amine or outer side, *2 acyl side, *3 side chain or, on linkers, in order; H or OH if unused. Where a SMILES comes first, the peptide text is derived from it. Bridges are numbered along the chain shown (N, C = ends). [ ]: non-standard residue; d: D form. The star is where a group is joined. ξ: configuration not given here. NMeHph(3-OMe-4-CONHMe) = CNC(=O)c1ccc(CC[C@H](NC)C(=O)O)cc1OC; Phe(3-OMe,4-CONHMe) = CNC(=O)c1ccc(C[C@H](N)C(=O)O)cc1OC; X18 = NN([C@@H](Cc1cccc(Cl)c1)C(=O)[*:2])[*:1]; NMePhe(3-Cl) = CN[C@@H](Cc1cccc(Cl)c1)C(=O)O; NMehPhe = CN[C@@H](CCc1ccccc1)C(=O)O; X6 = O=C([C@H](CCCCO)N[*:1])[*:2]; NMeF = CN[C@@H](Cc1ccccc1)C(=O)O; NMeGABA = CN(CCCC(=O)[*:2])[*:1]; NMeL = CN[C@@H](CC(C)C)C(=O)O; Thr(3ξ) = CC(O)[C@H](N)C(=O)O; Propyl(2R-OH) = C[C@@H](O)C*; Butyl(3S-OH) = C[C@H](O)CC*; NMeV = CN[C@H](C(=O)O)C(C)C; Piperidide = C1CCN(*)CC1; X8 = C1COC[C@@H](C*)N1; NBuGly = CCCCNCC(=O)O; Isopentyl = CC(C)CC*; NPrGly = CCCNCC(=O)O; Ethyl(2-OH) = OCC*; Sar = CNCC(=O)O; tBu = CC(C)(C)*
Numbers only, in ×10⁻⁶ cm/s.

Use these answered entries as a reference point.
| Compound | Readout Kind | Numeric Readout |
| --- | --- | --- |
| CCCCN1CC(=O)N(C)[C@@H](Cc2ccccc2)C(=O)N(C)[C@@H](CC(C)C)C(=O)N[C@@H](C(C)C)C(=O)N(C)[C@@H](CC(C)C)C(=O)N[C@H](C(=O)N2CCCCC2)CC(=O)N(C)CC(=O)N(C)[C@@H](CC(C)C)C(=O)N[C@@H](COC[C@@H]2COCCN2)C(=O)N(C)[C@@H](CC(C)C)C(=O)N[C@@H]([C@@H](C)O)C1=O [AP244] ([Sar][NMeL]S(X8)[NMeL]T[NBuGly][NMeF][NMeL]V[NMeL]D-Piperidide; lactam N-11) | Papp | 0.46 |
| CCCCN1CC(=O)N(C)[C@@H](Cc2ccccc2)C(=O)N(C)[C@@H](C(C)C)C(=O)N[C@@H](COC(C)(C)C)C(=O)N(C)[C@@H](CC(C)C)C(=O)N[C@H](C(=O)N2CCCCC2)CC(=O)N(C)CC(=O)N(N)[C@@H](Cc2cccc(Cl)c2)C(=O)N[C@@H](COCC[C@H](C)O)C(=O)N(C)[C@@H](CC(C)C)C(=O)N[C@@H]([C@@H](C)O)C1=O [AP105] ([Sar][X18]S(Butyl(3S-OH))[NMeL]T[NBuGly][NMeF][NMeV]S(tBu)[NMeL]D-Piperidide; lactam N-11) | Papp | 0.55 |
| CCCN1CC(=O)N(C)[C@@H](CCc2ccccc2)C(=O)N(C)[C@@H](CC(C)C)C(=O)N[C@@H](COCCC(C)C)C(=O)N(C)[C@@H](CC(C)C)C(=O)N[C@H](C(=O)N2CCCCC2)CC(=O)N(C)CC(=O)N(C)[C@@H](Cc2cccc(Cl)c2)C(=O)N[C@@H](CCCCO)C(=O)N(C)[C@@H](C(C)C)C(=O)N[C@@H]([C@@H](C)O)C1=O [Compound B07] ([Sar][NMePhe(3-Cl)][X6][NMeV]T[NPrGly][NMehPhe][NMeL]S(Isopentyl)[NMeL]D-Piperidide; lactam N-11) | Papp | 0.21 |
| CC(C)C[C@@H]1NC(=O)[C@H](Cc2ccccc2)N(C)C(=O)[C@@H](C(C)C)NC(=O)C[C@@H](C(=O)N2CCCCC2)NC(=O)[C@H](CC(C)C)N(C)C(=O)[C@H](Cc2cccc(Cl)c2)N(C)C(=O)[C@H](COC[C@@H](C)O)NC(=O)[C@H](CC(C)C)N(C)C(=O)CN(C)C(=O)[C@H]([C@@H](C)O)NC(=O)[C@H](CC(C)C)N(C)C1=O [AP72] ([dV][NMeF]L[NMeL]T[Sar][NMeL]S(Propyl(2R-OH))[NMePhe(3-Cl)][NMeL]D-Piperidide; lactam N-11) | Papp | 0.95 |

Hello, I would appreciate it if you could give Papp for each entry below.
1. CC[C@H](C)[C@@H]1NC(=O)[C@H](CC(C)C)N(C)C(=O)CCCN(C)C(=O)C[C@@H](C(=O)N2CCCCC2)NC(=O)[C@H](CC(C)C)N(C)C(=O)[C@H](CCc2ccc(C(=O)NC)c(OC)c2)N(C)C(=O)[C@H]([C@@H](C)O)NC(=O)[C@H](CC(C)C)N(C)C(=O)[C@H](COC(C)(C)C)NC(=O)[C@H](CC(C)C)N(C)C(=O)[C@H](Cc2ccccc2)N(C)C1=O [AP228] ([NMeGABA][NMeL]I[NMeF][NMeL]S(tBu)[NMeL]T[NMeHph(3-OMe-4-CONHMe)][NMeL]D-Piperidide; lactam N-11)
2. CC(C)C[C@H]1C(=O)N[C@@H](COC(C)(C)C)C(=O)N(C)[C@@H](Cc2ccccc2)C(=O)N(C)[C@@H](C(C)C)C(=O)N[C@H](C(=O)N2CCCCC2)CC(=O)N[C@H](C(C)C)C(=O)N(C)[C@@H](Cc2ccccc2)C(=O)N[C@@H](COc2cccc(Cl)c2)C(=O)N(C)[C@@H](C)C(=O)N[C@@H]([C@@H](C)O)C(=O)N(C)CC(=O)N1C [pd187]
3. CC(C)C[C@H]1C(=O)N[C@@H](C(C)C)C(=O)N(C)[C@@H](CCc2ccccc2)C(=O)N(C)[C@@H](CCc2ccccc2)C(=O)N[C@@H](CCCCO)C(=O)N(C)[C@@H](CC(C)C)C(=O)N[C@@H]([C@@H](C)O)C(=O)N(C)[C@@H](CC(C)C)C(=O)N(C)[C@@H](CC(C)C)C(=O)N[C@H](C(=O)N2CCCCC2)CC(=O)N(C)CCCC(=O)N1C [Compound B04] ([NMeGABA][NMeL]V[NMehPhe][NMehPhe][X6][NMeL]T[NMeL][NMeL]D-Piperidide; lactam N-11)
4. CNC(=O)c1ccc(C[C@@H]2NC(=O)[C@H](CC(C)C)N(C)C(=O)[C@H](CC(C)C)N(C)C(=O)[C@H](CC(C)C)NC(=O)[C@H](CC(C)C)N(C)C(=O)C[C@@H](C(=O)N3CCCCC3)NC(=O)[C@H](CC(C)C)N(C)C(=O)CN(C)C(=O)[C@H](C(C)O)NC(=O)[C@H](C(C)C)N(C)C(=O)[C@H](CC(C)C)N(C)C2=O)cc1OC (stereo partly drawn) [AP32] ([NMeL]L[NMeL][NMeL][Phe(3-OMe,4-CONHMe)][NMeL][NMeV][Thr(3ξ)][Sar][NMeL]D-Piperidide; lactam N-11)
5. CC[C@H](C)[C@@H]1NC(=O)[C@H](CC(C)C)N(C)C(=O)CCCN(C)C(=O)C[C@@H](C(=O)N2CCCCC2)NC(=O)[C@H](CC(C)C)N(C)C(=O)[C@H](CC(C)C)N(C)C(=O)[C@H]([C@@H](C)O)NC(=O)[C@H](CC(C)C)N(C)C(=O)[C@H](COCCO)NC(=O)[C@H](CCc2ccccc2)N(C)C(=O)[C@H](CCc2ccccc2)N(C)C1=O [Compound A04] ([NMeGABA][NMeL]I[NMehPhe][NMehPhe]S(Ethyl(2-OH))[NMeL]T[NMeL][NMeL]D-Piperidide; lactam N-11)

1. 0.84
2. 1.9
3. 0.07
4. 1.3
5. 0.41
